# EXPERIMENTAL PROTOCOL: LogP by HPLC on reversed phase columns (EEC directive 79/831 Annex V.A8)
# Type: physicochemical
# EXPERIMENTAL CONTEXT: method [a]: LC-UV, acidic range, 0.1% formic acid in water and acetonitrile as eluent
MEASUREMENT KIND: LogP

{"columns": ["COMPOUND", "LogP"],
 "data": [
  ["Fc1ccc(C2(C3(Oc4c(F)cc(Cl)cc4F)CC3)CO2)c(F)c1 (racemic)", "4.59^[a]"],
  ["COC(Cn1cncn1)(c1ccc(F)cc1F)C1(Oc2c(F)ccc(F)c2F)CC1 (racemic)", "3.50^[a]"],
  ["COC(Cn1cncn1)(c1ccc(F)cc1F)C1(Oc2c(Cl)ccc(Cl)c2Cl)CC1 (racemic)", "4.46^[a]"]
]}

Answer for every listed entry: what is its LogP? The entries follow.
1. O=C(c1ccc(F)cc1F)C1(Oc2c(Cl)cc(F)cc2Cl)CC1
2. COC(Cn1cncn1)(c1ccc(Cl)cc1F)C1(Oc2c(F)cc(F)cc2F)CC1 (racemic)
3. OC(Cn1cncn1)(c1ccc(F)cc1F)C1(Oc2c(Cl)cc(F)cc2Cl)CC1 (racemic)
4. Fc1ccc(C2(C3(Oc4c(F)ccc(F)c4F)CC3)CO2)c(F)c1 (racemic)

1. 4.76^[a]
2. 3.97^[a]
3. 3.94^[a]
4. 4.20^[a]

====

# EXPERIMENTAL PROTOCOL: LogP by HPLC on reversed phase columns (EEC directive 79/831 Annex V.A8)
# Type: physicochemical
# EXPERIMENTAL CONTEXT: method [a]: LC-UV, acidic range, 0.1% formic acid in water and acetonitrile as eluent
Consider the following molecules; for each one, report its LogP.

{"columns": ["MOLECULE", "MEASUREMENT"],
 "data": [
  ["O=C(c1ccc(F)cc1F)C1(Oc2c(Cl)cc(OC(F)(F)F)cc2Cl)CC1 [IV-12]", "5.39^[a]"]
]}

Answer for every listed entry: what is its LogP? The entries follow.
1. Fc1cc(F)c(OC2(C3(c4ccc(Cl)cc4F)CO3)CC2)c(F)c1 (centres unmarked) [Example V-15]
2. Fc1ccc(C2(C3(Oc4c(Cl)cc(OC(F)(F)F)cc4Cl)CC3)CO2)c(F)c1 (racemic) [Example V-05]
3. N#Cc1cc(Cl)c(OC2(C(=O)c3ccc(F)cc3F)CC2)c(Cl)c1 [IV-14]
4. OC(Cn1cncn1)(c1ccc(F)cc1F)C1(Oc2c(Cl)ccc(Cl)c2Cl)CC1 (racemic) [Example I-06]
5. Fc1ccc(C2(C3(Oc4c(Cl)cc(C(F)(F)F)cc4Cl)CC3)CO2)c(F)c1 (racemic) [Example V-11]
6. OC(Cn1cncn1)(c1ccc(Cl)cc1F)C1(Oc2c(F)cc(F)cc2F)CC1 (racemic) [Example I-24]

1: 4.72^[a]; 2: 5.62^[a]; 3: 4.15^[a]; 4: 4.19^[a]; 5: 5.51^[a]; 6: 3.51^[a]

Answer for every listed entry: what is its LogP? The entries follow.
1. O=C(c1ccc(F)cc1F)C1(Oc2cc(F)c(F)c(F)c2)CC1 [IV-10]
2. OC(Cn1cncn1)(c1ccc(F)cc1F)C1(Oc2ccc(F)c(F)c2F)CC1 (racemic) [Example I-27]
3. OC(Cn1cncn1)(c1ccc(F)cc1F)C1(Oc2c(F)cc(Br)cc2F)CC1 (single isomer, unassigned) [Example I-21]
4. O=C(c1ccc(F)cc1F)C1(Oc2cc(F)c(F)cc2F)CC1 [IV-18]
5. O=C(c1ccc(F)cc1F)C1(Oc2c(Cl)ccc(Cl)c2Cl)CC1 [IV-8]
6. OC(Cn1cncn1)(c1ccc(Cl)cc1F)C1(Oc2c(F)cc(Cl)cc2F)CC1 (racemic) [Example I-23]
7. OC(Cn1cncn1)(c1ccc(F)cc1F)C1(Oc2cc(F)c(F)c(F)c2)CC1 (racemic) [Example I-05]

4.20^[a]
3.30^[a]
3.63^[a]
3.94^[a]
5.03^[a]
4.01^[a]
3.44^[a]
